Target: T1, Human Notch4-NRR domain Fc fusion protein (human, UniProt Q99466 1046-1445, limits assumed)
T1 construct: Expressed in a CHO cell line, used from culture supernatant; 1 is named; also called Human Notch4-NRR Fusion Protein; not shown: Fc
T1 sequence: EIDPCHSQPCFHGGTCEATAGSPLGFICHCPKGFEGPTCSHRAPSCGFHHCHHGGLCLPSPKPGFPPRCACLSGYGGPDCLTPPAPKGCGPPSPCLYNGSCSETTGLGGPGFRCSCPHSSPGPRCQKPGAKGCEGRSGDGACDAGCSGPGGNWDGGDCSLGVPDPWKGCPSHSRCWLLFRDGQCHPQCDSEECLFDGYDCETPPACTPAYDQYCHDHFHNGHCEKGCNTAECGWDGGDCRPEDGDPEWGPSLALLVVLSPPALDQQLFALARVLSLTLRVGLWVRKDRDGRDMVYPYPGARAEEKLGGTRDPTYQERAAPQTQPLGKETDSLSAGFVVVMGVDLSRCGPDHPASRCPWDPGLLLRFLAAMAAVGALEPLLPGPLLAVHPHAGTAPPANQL
Test: SPR (Biacore) as for Table 30; Notch4-NRR-Fc captured, antibody injected; averaged, N=3
recorded_metric: Kd (nM)
Write the number in nM without appending the unit.

Field: example entries. Status: answers known.
{"columns": ["binder", "recorded_metric", "readout_value"],
 "data": [
  ["HK3L6(Lys-) (antibody, human IgG2, kappa, V domains shown, Humanized IgG2 (V234A, G237A)/κ; also called No. 42) VH: EVQLVESGGGLVQPGGSLRLSCAASGFTFSSYGMSWVRQAPGKGLELVATINSNGGRTYYPDSVKGRFTISRDNSKNTLYLQMGSLKAEDMAVYYCARDQGFAYWGQGTLVTVSS VL: EIVMTQSPATLSVSPGERATLSCKASQDVGTAVAWYQQKPGQSPRLLIYWASTRHTGIPARFSGSGSGTEFTLTISSLQSEDFAVYFCQQYSSYPWTFGQGTKVEIKR", "Kd", 0.766],
  ["Antibody E (antibody, human IgG2, kappa, V domains shown, Humanized IgG2 (V234A, G237A)/κ; also called HK2L6 (Lys-); HK2L6(Lys-)) VH: EVQLVESGGGLVQPGGSLRLSCAASGFTFSSYGMSWVRQAPGKGLELVSTINSNGGRTYYPDSVKGRFTISRDNSKNTLYLQMGSLRAEDMAVYYCARDQGFAYWGQGTLVTVSS VL: EIVMTQSPATLSVSPGERATLSCKASQDVGTAVAWYQQKPGQSPRLLIYWASTRHTGIPARFSGSGSGTEFTLTISSLQSEDFAVYFCQQYSSYPWTFGQGTKVEIKR", "Kd", 0.62],
  ["HK1L5 (antibody, human IgG2, kappa, V domains shown, Humanized IgG2 (V234A, G237A)/κ; also called No. 10) VH: EVQLVESGGGLVQPGGSLRLSCAASGFTFSSYGMSWVRQAPGKGLEYVSTINSNGGRTYYPDSVKGRFTISRDNSKNTLYLQMGSLRAEDMAVYYCARDQGFAYWGQGTLVTVSS VL: DIQMTQSPSSLSASVGDRVTITCKASQDVGTAVAWYQQKPGKSPKLLIYWASTRHTGVPSRFSGSGSGTDFTLTISSLQPEDVATYFCQQYSSYPWTFGQGTKVEIKR", "Kd", 1.78]
]}

Please find the next binder below.
Qu. Any idea what Kd was measured for HA2L6(Lys-) (antibody, human IgG2, kappa, V domains shown, Humanized IgG2 (V234A, G237A)/κ; also called No. 40) VH: EVQLVESGGGLVQPGGSLRLSCAASGFTFSSYGMSWVRQAPGKGLELVSTINSNGGRTYYANSVKGRFTISRDNSKNTLYLQMGSLRAEDMAVYYCARDQGFAYWGQGTLVTVSS VL: EIVMTQSPATLSVSPGERATLSCKASQDVGTAVAWYQQKPGQSPRLLIYWASTRHTGIPARFSGSGSGTEFTLTISSLQSEDFAVYFCQQYSSYPWTFGQGTKVEIKR ?
Ans. 0.838
